test: yeast display, Sf9 membrane polyspecificity reagent, FACS + sequencing; frameworks hold sequencing errors
measureName: polyreactivity (PSR sort gate)

itemsequence=QVQLVESGGGLVQAGGSLRLSCAASGIIFLQYAMGWYRQAPGKERELVAAITRRGDRTYYADSVKGRFTISRDNAKNTVYLQMNSLKPEDTAVYYCAASYWYRDYYYWGQGTQVTVSS observed="high polyreactivity"
itemsequence=QVQLVESGGGLVQAGGSLRLSCAASGRTFYPYVMGWYRQAPGKEREMVAAISYTGGSTYYADSVKGRFTISRDNAKNTVYLQMNSLKPEDTAVYYCNRAKYYSGGYRYHVDYWGQGTQVTVSS observed="high polyreactivity"

* * *

assay: yeast display, Sf9 membrane polyspecificity reagent, FACS + sequencing; frameworks hold sequencing errors
measureName: polyreactivity (PSR sort gate)

itemsequence=QVQLVESGGGLVQAGGSLRLSCAASGFTFNKYAMGWYRQAPGTERELVAAISSRGGSPYYADSVKGRFTISRDNAKNTVYLQMNSLKPEDTAVYYCAVYTIGYLAWYQKFDYWGQGTQVTVSS measurename="polyreactivity (PSR sort gate)" observed="high polyreactivity"
itemsequence=QVQHVESGGGLVQAGGSLRLSCAASGSTFRVNAMGWYRPAPGKERELVAGISKSGTSTYYADSVKGRFTISRDNAKNTVYLQMNSLKPEDTAVYYCIKGYYRHPDESDYWGQGTQVTVSS measurename="polyreactivity (PSR sort gate)" observed="high polyreactivity"
itemsequence=QVQHEESGGGLVQAGGSLRLSCAASGRIFHFNTMGWYRQAPGKERELVAAITSSGGSTNYADSVKGRFTISRDNAKNTVYLQMNSLKPEDTAVYYCNADTGAADYFDFDYWGQGTQVTVSS measurename="polyreactivity (PSR sort gate)" observed="low polyreactivity"
itemsequence=QVQLVESGGGLVQAGGSLRLSCAASGIIFQHNAMGWYRQAPGKERELVAAISSNGGRTFYPDSVKGRFTISRDNAKNTVYLQMNSLKPEDTAVYYCNRQYPSRYGYWGQGTQVTVSS measurename="polyreactivity (PSR sort gate)" observed="high polyreactivity"
itemsequence=QVQLVESGGGLVQAGGSLRLSCAASGFTFSRNVMGWYRQAPGKERELVADITLSGASTYYADSVKGRFTISRDNAKNTVYLQMNSLKPEDTAVYYCAADPYHWRCGWRHDYWGQGTQVTVSS measurename="polyreactivity (PSR sort gate)" observed="low polyreactivity"
itemsequence=QVQLVESGGGLVQAGGSLRLSCAASGPTFLVNAMGWYRQAPGKERELVATINWNAGSTYYADSVKGRFTISRDYAKNTVYLQMNSLKPEDTAVYYCAAPYEQAPTTDVSSLIPLHDYWGQGTQVTVSS measurename="polyreactivity (PSR sort gate)" observed="low polyreactivity"
itemsequence=QVQLVESGGGLVQAGGSLRLTSAASVSTFYNYAMVWYRQAPGKERELVASMTWNGGSTYYADSVKGRFTISRDNAKNTVDLQMTSLKPEDTAGSYCAAEYRDQYPTYPYYRPGYDYWGQGTQVTVSS measurename="polyreactivity (PSR sort gate)" observed="low polyreactivity"
itemsequence=QVQLVESGGGLVQAGGSLRLSCAASGFTFYGYAMGRYRQAPGKERELVAAITFRGDRTYYADSVKGRFTISRDNAKNTVYLQMNSLKPEDTAVYYCAAERPSGWYSDLSLYIGRRGYWGQGTQVTVSS measurename="polyreactivity (PSR sort gate)" observed="low polyreactivity"
itemsequence=QVQLVESGGGLVQAGGSLRLSCAASGSTLYDYAMGWYRQAPGKERELVAAINGSGGSTYYADSVKGRFTISRDNAKNTVYLQMNSLKPEDTAVYYCAAATTHRRRYGYWGQGTQVTVSS measurename="polyreactivity (PSR sort gate)" observed="low polyreactivity"
itemsequence=QVQLVESGGGLVQAGGRLRLSCAASGLTYTRYTMGWYRPAPGKERELVAAITSSGGSTYYADSVKGRFTISRDNAKNTVFLQMNSLKPEDTAVYFCAARYPGTRGDGYWGQGTQVTVSS measurename="polyreactivity (PSR sort gate)" observed="high polyreactivity"
itemsequence=QVQLVESGGGLVQAGGSLRLSCAASGFIFTSNAMGWYRQAPGKERELVAAITKSGGSTYYADSVKGRFTISRDNAKNTVYLQMNSLKPEDTAVYYCATRGVRRYYKTMNYWGQGTQVTVSS measurename="polyreactivity (PSR sort gate)" observed="high polyreactivity"

* * *

assay: yeast display, Sf9 membrane polyspecificity reagent, FACS + sequencing; frameworks hold sequencing errors
measureName: polyreactivity (PSR sort gate)

itemsequence=QVQLVESGGGLVQAGGSLRLSCAASGFIFYNYAMGWYRQAPGKERELVAAISKSGDSTYYADSVKGRFTISRDNAKNTVYLQMNSLKPEDTAVYYCNKEIVWHLWYESWGQGTQVTVSS observed="high polyreactivity"
itemsequence=QVQLVESGGGLVQAGGSLRLSCAASGSNYSGYTMGWYRQAPGKERELVAAISYRGGRTYYADSVKGRFTISRDNAKNTVYFLMNSLKPEDTAVYYCNAAPYITRRHDYWGQGTLVTVSS observed="high polyreactivity"
itemsequence=QVQLVESGGGLVEAGGSLRISCAASGSIFGYYAMGWYRQAPGKERELVAAISYSGGSTNYADSVKGRFTISRDTAKNSVSLQMNSLKPEDTAGYAFATSRSRRYVEFYRYDYWGQGPQVTVSS observed="high polyreactivity"
itemsequence=QVQLVESGGGLVQAGGSLRLSCAASGSTFYFYARGWYRQAPGKERELVAVISSGGTTNYADSVKGRFTISRDNAKNTVYLQMNSLKPEDTAVYYCNAEPPRGYTVSSGGEMDYWGQGTQVTVSS observed="low polyreactivity"
itemsequence=QVQLVESGGGLVQAGGSLRLSCAASGRIFYYYAMGWYRQAPGKERELVAASSTYYADSVKGRFTISRDNAKNTVYLQMNSQKPEDTAVYYCAAVTFSYDGYDYWGPGTQVTVSS observed="low polyreactivity"

* * *

test: yeast display, Sf9 membrane polyspecificity reagent, FACS + sequencing; frameworks hold sequencing errors
measureName: polyreactivity (PSR sort gate)

itemsequence=QVQLVESGGGLVQAGGSLRLSCADYGFIMLYYALVCYRQAPGKERELVAAISWTGGRTYYADSVKGRFTISRDNAKNTVYLQMNSLKPEDTAVYFCNTVKLFGRKYGYWGQGTQVTVSS observed="low polyreactivity"
itemsequence=QVQLRESGGGLVQAGGSLRLSCAASGRIFSVYAMGWDRQAPGKERELVAAITRVGSTNYADSVKGRFTISRDNAKNTVYLQMNSLKPEDTAVYYCAARSTGYPTGRMYYWGQGTQVTVSS observed="high polyreactivity"
itemsequence=QVQLVESGGGLVQAGGSLRFSCAASGGTFYVYAMGGYRQATGKERELVAAISTSGGSTYYADSVKGRFTISRDNAKNTVYLQMNSLKPEDTAVYYCAARRVSFSGHPRYGYWGQGTQVTVSS observed="high polyreactivity"
itemsequence=QVQLVESGGGLVQAGGSLRLSCAASGLIFYTNAMGWYRQAPGKERELVAAIDRASTNYADSVKGRFTISRDNAKNTVYLQMNSLKPEDTAVYYCAAGAGRSTFTVGYWGQGTQVTVSS observed="low polyreactivity"
itemsequence=QVQLVESGGGLVQAGGSLRLSCAASGSIFAYYAMGWYRQAPGKERELVAAISYSGDGTYYADSVKGRFTISRDNAKNTVYFQMNSLKPEDTAVYYCAADWDGYFYKSNWDYNYWGQGTQVTVSS observed="low polyreactivity"
itemsequence=QVQLVESGGGLVQAGGTLRLSCAATGSTFNINAMGWYRQAPGKERELFAAITRGGTNYADSVKGRFTISRDNAKNTVYLQMNSLKPEDTAVYYCAARGTGGSVKVTSLQQGGYWGQGTQVTVSS observed="high polyreactivity"
itemsequence=QVQLVESGGGLVQAGGSLRLSCAASGSTFYTYAMGWYRQAPGKERELVAAISNRGGSTRYADSVKGRFTISRDNAKNTVYLQMNSLKPEDTAVYYCAARVTQTGYYWGQGTQVTVSS observed="high polyreactivity"
itemsequence=QDQLVESGGGLVQAGGSLRLSCAASGNTFRYYALGGYRQAPGKERELVATITSGGRTYYADSVKGRFTISRDNAKNTVYLQMNSLKPEDTAVHYGAAVGLDYFVGEYDYWGQGTQVTVSS observed="low polyreactivity"
itemsequence=QVQLVESGGGLVQAGGSLRLSCAASGRIFSFNAMGWYRQAPGKERELVAAISWSTGSTFYADSVKGRFTISRDNAKNTVYVQMNSLKPEDTAFYYCAREYYYRRGFFLRGYWGQGTQVTVSS observed="high polyreactivity"
itemsequence=QVQLVESGGGLVKAGGSLRFSCAASVITFVWYAMGWYRQAPGKERDLVASIDSSVSTNYADSVKGRFTISRDNEKNTVYFQMNSLKPEDTAVYYCAAYFFFGQVGGMEYWGQGTQVTVSS observed="low polyreactivity"
itemsequence=QVQLVESGGGLVQAGGSLRLSCAASGRTFEYYAMGWYRQAPGKERELVASITSGGITNYADSVKGRFTISRDNAKNTVYLQMNSLKPEDTAVYYCNKRPWTRFDWGQGTQVTVSS observed="low polyreactivity"
itemsequence=QVQLVESGGGLVQAGGSLRLSCAASGRIFPGYTMGWYRQAPGKEREFVAAISYSGGSTYADSVKGRFTISRDNAKNTVYLQMNSLKPEDTAVNYCAVVLQHWLDMYYWGQGTQVTVSS observed="low polyreactivity"
itemsequence=QVQLVESGGGLVQAGGSLRLSCAASGFIFKYNAMGWYRQAPGKERELVAAISYRGTRTYYADSVKGRFTISRDNAKNTVYLQMNSLKPEDTAVYYCNAGLTYNHHPYDYWGQGTQVTVSS observed="high polyreactivity"
itemsequence=QVQLVESGGGLVQAGGSLRLSCAASGSTFYRYTMGWYRQAPGKERELVAAITGSGDSTYYADSVKGRFTISRDNAKNTVYLQMNSLKPEDTAVYYCAAANSFYYIATGEYDYWGQGTQVNVSS observed="high polyreactivity"
itemsequence=QVHLVESGGGLVQAAGSLRLSCAASVSTIPPNAMGWDRQAPGKEREFVAAISSVGSSYYADSVKGRFTISRDNAKKTFYLQMNSLKPEDTAVYYCAKGSWYWVEPYDYWGLGTQVTVSS observed="high polyreactivity"
itemsequence=QVQLVESGGGLVQAGGSLRLSCAACGITFLSNAMGWYRQAPGKERELVAAITTSGGTTYADSVKGRFTISRDNAKNTVYLQMNSLKPEDTAVYYCNAVGYTPRKPSKFDYWGQGTQVTVSS observed="low polyreactivity"
itemsequence=QVQLVESGGGLVQAGGSLRLSCAASGSISPQNVMGWYRQAPGKERELVAAITGGGSTNYADSVKGRFTISRDNAKNTVYLQMNSLKPEDTAVYYCNADYFQDRLDYWGHGTQVTVSS observed="low polyreactivity"
itemsequence=QVQLVESGGGLVQAGGSLRLSCSASGIIYKSYAMGWYRQAPGKERELVAAISGGGDTYYADSVKGRFTISRDNAKNTVYLQMNSLKPEDTAVYYCNTDGSQGTIIAIFVKYDYWGQGTQVTVSS observed="low polyreactivity"
itemsequence=QVQLVESGGGLLQAGGSLRLSCAASGRTFRYYAMGWYRQAPGKERELVAAISSGGSSTYYADSVKGRFTISRDNAKNTVYLQMNSLKPEDTAVYYCAAGYYPFNYWGQGTQVTVSS observed="high polyreactivity"
itemsequence=QVQLEESGGGLVQAGGSLRLSCAASGSIFGLYAMGWYRQAPGKERELVAAINQSGGSTSYADSVKGRFTISRDNAKNTVYLQMNSLKPEDTAVYYCNRVRLNTEGFDYWGQGTQVTVSS observed="low polyreactivity"
itemsequence=QVQLVESGGGLVQAGGSLRLSCAASGSIFRYYAMGWYRQAPGKERELVAAIRWSGGSTYYADSVKGRFTISRDNAKNTVYLQMNSLKPEDTAVYYCAARVGYRGSRQYSSYTLVDYWGQGTQVTVSS observed="high polyreactivity"
